System: ZAP70
EXPERIMENTAL SETUP: concentration: 1 μM, replicates: in singlicate; n = 1;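 note: KINOMEscan kinase panel screen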
%Inh for assorted compounds
Number only, in %; omit the unit.

Before answering, review these 8 worked examples.
INSERT INTO measurements (structure_smiles_string, number) VALUES
  ('Cl.N#CCc1ccc(Nc2nccc(Nc3ccc(Oc4ccccc4)cc3)n2)cc1', 0),
  ('CCNc1nccc(-c2c(-c3ccc(F)cc3)ncn2C2CCN(C)CC2)n1', 0),
  ('Nc1ncc(-c2ccc3nccc(-c4ccncc4)c3c2)cc1S(=O)(=O)N1CCCCC1', 0),
  ('Cc1ccc(NC(=O)c2cccc(N3CCCCC3)c2)cc1-c1ccc(C(=O)NCC2CC2)cc1', 0),
  ('Nc1ncnc2scc(-c3ccc(NC(=O)Cc4cc(F)ccc4F)cc3)c12.O=C(O)C(F)(F)F', 0),
  ('COc1cccc(-c2nc(-c3ccccc3)[nH]c2-c2ccncc2)c1', 0),
  ('O=C(Nc1c(F)cccc1F)c1cc(C(=O)c2ccccc2F)c[nH]1', 0),
  ('COc1ccc(NC(=O)c2ccoc2)cc1-c1ccc(C(=O)NCC2CC2)cc1', 36);

Answer with reported %Inh of CN(C)c1ncnc2nc[nH]c12 7

====

System: CDC2L2
EXPERIMENTAL SETUP: concentration: 1 μM, replicates: in singlicate; n = 1
%Inh for assorted compounds
Number only, in %; omit the unit.

Before answering, review these 6 worked examples.
INSERT INTO measurements (compound, number) VALUES
  ('CN(c1ccc(NC(=O)N2CCN(CCCN3CCOCC3)CC2)cc1)c1ccnc(Nc2ccc(CS(C)(=O)=O)cc2)n1.Cl [GW830899]', 1),
  ('Cc1ccc(O)cc1Nc1ccnc2ccc(C(C)(C)C)cc12 [GW856805]', 15),
  ('Cl.N#CCc1ccc(Nc2nccc(Nc3ccc(Oc4ccccc4)cc3)n2)cc1 [GW639905]', 1),
  ('Cc1cccc(Nc2nc(N[C@H]3CCCC[C@H]3N)ncc2C(N)=O)c1.Cl [GSK986310]', 11),
  ('CC(C)c1nc(-c2cccc(NS(=O)(=O)c3c(F)cccc3F)c2)c(-c2ccnc(Nc3ccc(N4CCOCC4)nc3)n2)s1.Cl [GSK1723980]', 0),
  ('c1ccc(Oc2ccc(Nc3ccnc4cc(-c5ccc(CN6CCCCC6)o5)ccc34)cc2)nc1 [GW567143]', 9);

Answer with reported %Inh of O=C(O)C(F)(F)F.O=c1[nH]ccc2nc(N[C@@H]3CCNC3)nc(Nc3ccc4c(c3)S(=O)(=O)CC4)c12 [GSK2181306] 0

====

System: EIF2AK1
EXPERIMENTAL SETUP: concentration: 1 μM, replicates: in singlicate; n = 1
MEASURE NAME: %Inh
Write the figure, then the unit, nothing else.

Before answering, review these 3 worked examples.
INSERT INTO assay_data (compound, result) VALUES
  ('Cc1ccccc1CC(=O)N1CCc2cc(-c3cn(C)c4ncnc(N)c34)ccc21', '90.1%'),
  ('Cl.Cl.NC(CNC(=O)c1cc(Br)c(-c2ccnc3[nH]ccc23)s1)c1ccccc1 (stereo not shown)', '1%'),
  ('O=C1NC(=O)C(c2ccccc2Cl)=C1Nc1cccc(Cl)c1', '27%');

Next:
Answer with reported %Inh of Cl.N#CCc1ccc(Nc2nccc(Nc3ccc(Oc4ccccc4)cc3)n2)cc1 5%
